Taken from patent US9090618B2.

target: UniProt:P41146; test: In vitro ORL-1 receptor [35S]GTPγS functional assay
Sequence (P41146 whole entry): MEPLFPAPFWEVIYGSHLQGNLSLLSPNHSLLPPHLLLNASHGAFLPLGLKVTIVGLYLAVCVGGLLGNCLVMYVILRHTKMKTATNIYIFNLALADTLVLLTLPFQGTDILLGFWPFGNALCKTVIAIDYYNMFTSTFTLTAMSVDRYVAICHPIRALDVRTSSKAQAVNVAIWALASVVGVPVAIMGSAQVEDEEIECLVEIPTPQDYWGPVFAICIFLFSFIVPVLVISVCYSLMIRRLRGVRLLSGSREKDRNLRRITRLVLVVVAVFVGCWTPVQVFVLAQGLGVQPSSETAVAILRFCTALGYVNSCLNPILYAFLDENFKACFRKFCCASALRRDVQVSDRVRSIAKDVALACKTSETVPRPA
List of pEC50 values.
The value called pEC50 is obtained by taking minus log10 of the concentration in mol/L.

Molecule	pEC50
O=C(O)CCN1CCC(c2nc3ccccc3n2[C@H]2C[C@H]3CCC[C@@H](C2)N3[C@@H]2C[C@@H]3CCCC[C@@H](C3)C2)CC1	6.60
COCCOCCOCCN1CCC[C@@H](c2nc3ccccc3n2[C@H]2C[C@H]3CCC[C@@H](C2)N3[C@H]2C[C@@H]3CCC[C@@H](C3)C2)C1	6.30
O=C(O)CCN1CC[C@H](c2nc3ccccc3n2[C@H]2C[C@H]3CCC[C@@H](C2)N3[C@@H]2C[C@@H]3CCCC[C@@H](C3)C2)C1 [H32d(ii)]	6.80
O=C(O)CN1CCC(c2nc3ccccc3n2[C@H]2C[C@H]3CCC[C@@H](C2)N3[C@@H]2C[C@@H]3CCCC[C@@H](C3)C2)CC1	6.85
COCCOCCOCCN1CCC[C@H](c2nc3ccccc3n2[C@H]2C[C@H]3CCC[C@@H](C2)N3[C@H]2C[C@@H]3CCC[C@@H](C3)C2)C1	6.41

Now for the molecule whose pEC50 we want.
Query: // pEC50 lookup, key: O=C(O)CN1CCC[C@@H]1c1nc2ccccc2n1[C@H]1C[C@H]2CCC[C@@H](C1)N2C1CCCCCCCCC1 [E30c(ii)]
Reply: 6.47
